Experiment: Biodistribution in mice bearing PC-3 tumors
Settings: Balb/c nu/nu, mouse, kidneys, iv, 40 pmol, total radioactivity, Kidneys uptake, 1 h pi, n = 4
ASSAY ENDPOINT: tissue uptake at 1 h

MOLECULE: CC(C)C[C@H](NC(=O)C[C@H](O)[C@H](CC(C)C)NC(=O)[C@H](Cc1c[nH]cn1)NC(=O)CN(C)C(=O)[C@@H](NC(=O)[C@H](C)NC(=O)[C@H](Cc1c[nH]c2ccccc12)NC(=O)[C@H](CCC(N)=O)NC(=O)[C@@H](Cc1ccccc1)NC(=O)COCCOCCNC(=O)CCC(C(=O)O)N1CCN(CC(=O)O)CCN(CC(=O)O)CCN(CC(=O)O)CC1)C(C)C)C(N)=O (mixture of isomers) [[^111In]In-AU-RM26-M1, [^111In]In-DOTAGA-PEG2-(Sar^11)RM26, metal not drawn]
MEASURED: 7.2 %ID/g

----------
Experiment: Biodistribution in mice bearing PC-3 tumors
Details: Balb/c nu/nu, mouse, spleen, iv, 40 pmol, total radioactivity, Spleen uptake, 1 h pi, n = 4

COMPOUND: CC(C)C[C@H](NC(=O)C[C@H](O)[C@H](CC(C)C)NC(=O)[C@H](Cc1c[nH]cn1)NC(=O)CN(C)C(=O)[C@@H](NC(=O)[C@H](C)NC(=O)[C@H](Cc1c[nH]c2ccccc12)NC(=O)[C@H](CCC(N)=O)NC(=O)[C@@H](Cc1ccccc1)NC(=O)COCCOCCNC(=O)CCC(C(=O)O)N1CCN(CC(=O)O)CCN(CC(=O)O)CCN(CC(=O)O)CC1)C(C)C)C(N)=O (mixture of isomers) [[^111In]In-AU-RM26-M1, [^111In]In-DOTAGA-PEG2-(Sar^11)RM26, metal not drawn]
UNIT LABEL: %ID/g
tissue uptake at 1 h: 0.3

----------
Assay: Biodistribution in mice bearing PC-3 tumors
Details: Balb/c nu/nu, mouse, small intestine, iv, 40 pmol, total radioactivity, Small intestine uptake, 1 h pi, n = 4

COMPOUND: CC(C)C[C@H](NC(=O)C[C@H](O)[C@H](CC(C)C)NC(=O)[C@H](Cc1c[nH]cn1)NC(=O)CN(C)C(=O)[C@@H](NC(=O)[C@H](C)NC(=O)[C@H](Cc1c[nH]c2ccccc12)NC(=O)[C@H](CCC(N)=O)NC(=O)[C@@H](Cc1ccccc1)NC(=O)COCCOCCNC(=O)CCC(C(=O)O)N1CCN(CC(=O)O)CCN(CC(=O)O)CCN(CC(=O)O)CC1)C(C)C)C(N)=O (mixture of isomers) [[^111In]In-AU-RM26-M1, [^111In]In-DOTAGA-PEG2-(Sar^11)RM26, metal not drawn]
tissue uptake at 1 h: 1.1 %ID/g

----------
Experiment: in vivo
Conditions: Balb/c nu/nu, mouse, iv, 40 pmol, total radioactivity, Tumor (PC-3) uptake

COMPOUND: CC(C)C[C@H](NC(=O)C[C@H](O)[C@H](CC(C)C)NC(=O)[C@H](Cc1c[nH]cn1)NC(=O)CNC(=O)[C@@H](NC(=O)[C@H](C)NC(=O)[C@H](Cc1c[nH]c2ccccc12)NC(=O)[C@H](CCC(N)=O)NC(=O)[C@@H](Cc1ccccc1)NC(=O)COCCOCCNC(=O)CCC(C(=O)O)N1CCN(CC(=O)O)CCN(CC(=O)O)CCN(CC(=O)O)CC1)C(C)C)C(N)=O (mixture of isomers) [[^111In]In-DOTAGA-PEG2-RM26, metal not drawn]
tissue uptake at 1 h: 6 %ID/g

----------
Assay: in vivo
Details: Balb/c nu/nu, mouse, iv, 40 pmol, total radioactivity, Pancreas uptake

COMPOUND: CC(C)C[C@H](NC(=O)C[C@H](O)[C@H](CC(C)C)NC(=O)[C@H](Cc1c[nH]cn1)NC(=O)CNC(=O)[C@@H](NC(=O)[C@H](C)NC(=O)[C@H](Cc1c[nH]c2ccccc12)NC(=O)[C@H](CCC(N)=O)NC(=O)[C@@H](Cc1ccccc1)NC(=O)COCCOCCNC(=O)CCC(C(=O)O)N1CCN(CC(=O)O)CCN(CC(=O)O)CCN(CC(=O)O)CC1)C(C)C)C(N)=O (mixture of isomers) [[^111In]In-DOTAGA-PEG2-RM26, metal not drawn]
tissue uptake at 1 h / %ID/g: 1.9

----------
Experiment: Biodistribution in mice bearing PC-3 tumors
Settings: Balb/c nu/nu, mouse, PC-3 tumor, iv, 40 pmol, total radioactivity, Tumor (PC-3) uptake, 24 h pi, n = 4

MOLECULE: CC(C)C[C@H](NC(=O)C[C@H](O)[C@H](CC(C)C)NC(=O)[C@H](Cc1c[nH]cn1)NC(=O)CN(C)C(=O)[C@@H](NC(=O)[C@H](C)NC(=O)[C@H](Cc1c[nH]c2ccccc12)NC(=O)[C@H](CCC(N)=O)NC(=O)[C@@H](Cc1ccccc1)NC(=O)COCCOCCNC(=O)CCC(C(=O)O)N1CCN(CC(=O)O)CCN(CC(=O)O)CCN(CC(=O)O)CC1)C(C)C)C(N)=O (mixture of isomers) [[^111In]In-AU-RM26-M1, [^111In]In-DOTAGA-PEG2-(Sar^11)RM26, metal not drawn]
tissue uptake at 24 h [%ID/g]: 1.8

----------
Assay: in vivo
Conditions: Balb/c nu/nu, mouse, iv, 40 pmol, total radioactivity, Muscle uptake

COMPOUND: CC(C)C[C@H](NC(=O)C[C@H](O)[C@H](CC(C)C)NC(=O)[C@H](Cc1c[nH]cn1)NC(=O)CNC(=O)[C@@H](NC(=O)[C@H](C)NC(=O)[C@H](Cc1c[nH]c2ccccc12)NC(=O)[C@H](CCC(N)=O)NC(=O)[C@@H](Cc1ccccc1)NC(=O)COCCOCCNC(=O)CCC(C(=O)O)N1CCN(CC(=O)O)CCN(CC(=O)O)CCN(CC(=O)O)CC1)C(C)C)C(N)=O (mixture of isomers) [[^111In]In-DOTAGA-PEG2-RM26, metal not drawn]
tissue uptake at 4 h [%ID/g]: 0.04

----------
Test: Biodistribution in mice bearing PC-3 tumors
Conditions: Balb/c nu/nu, mouse, bone, iv, 40 pmol, total radioactivity, Bone uptake, 1 h pi, n = 4

MOLECULE: CC(C)C[C@H](NC(=O)C[C@H](O)[C@H](CC(C)C)NC(=O)[C@H](Cc1c[nH]cn1)NC(=O)CN(C)C(=O)[C@@H](NC(=O)[C@H](C)NC(=O)[C@H](Cc1c[nH]c2ccccc12)NC(=O)[C@H](CCC(N)=O)NC(=O)[C@@H](Cc1ccccc1)NC(=O)COCCOCCNC(=O)CCC(C(=O)O)N1CCN(CC(=O)O)CCN(CC(=O)O)CCN(CC(=O)O)CC1)C(C)C)C(N)=O (mixture of isomers) [[^111In]In-AU-RM26-M1, [^111In]In-DOTAGA-PEG2-(Sar^11)RM26, metal not drawn]
tissue uptake at 1 h [%ID/g]: 0.17

----------
Test: in vivo
Conditions: Balb/c nu/nu, mouse, iv, 40 pmol, total radioactivity, Kidneys uptake
ASSAY ENDPOINT: tissue uptake at 4 h (%ID/g)

COMPOUND: CC(C)C[C@H](NC(=O)C[C@H](O)[C@H](CC(C)C)NC(=O)[C@H](Cc1c[nH]cn1)NC(=O)CNC(=O)[C@@H](NC(=O)[C@H](C)NC(=O)[C@H](Cc1c[nH]c2ccccc12)NC(=O)[C@H](CCC(N)=O)NC(=O)[C@@H](Cc1ccccc1)NC(=O)COCCOCCNC(=O)CCC(C(=O)O)N1CCN(CC(=O)O)CCN(CC(=O)O)CCN(CC(=O)O)CC1)C(C)C)C(N)=O (mixture of isomers) [[^111In]In-DOTAGA-PEG2-RM26, metal not drawn]
ASSAY ENDPOINT: tissue uptake at 4 h
UNIT LABEL: %ID/g
MEASURED: 3.5

----------
Assay: Biodistribution in mice bearing PC-3 tumors
Settings: Balb/c nu/nu, mouse, liver, iv, 40 pmol, total radioactivity, Liver uptake, 4 h pi, n = 4

MOLECULE: CC(C)C[C@H](NC(=O)C[C@H](O)[C@H](CC(C)C)NC(=O)[C@H](Cc1c[nH]cn1)NC(=O)CN(C)C(=O)[C@@H](NC(=O)[C@H](C)NC(=O)[C@H](Cc1c[nH]c2ccccc12)NC(=O)[C@H](CCC(N)=O)NC(=O)[C@@H](Cc1ccccc1)NC(=O)COCCOCCNC(=O)CCC(C(=O)O)N1CCN(CC(=O)O)CCN(CC(=O)O)CCN(CC(=O)O)CC1)C(C)C)C(N)=O (mixture of isomers) [[^111In]In-AU-RM26-M1, [^111In]In-DOTAGA-PEG2-(Sar^11)RM26, metal not drawn]
tissue uptake at 4 h: 0.24 %ID/g

----------
Assay: in vivo
Settings: Balb/c nu/nu, mouse, iv, 40 pmol, total radioactivity, Tumor (PC-3) uptake

COMPOUND: CC(C)C[C@H](NC(=O)C[C@H](O)[C@H](CC(C)C)NC(=O)[C@H](Cc1c[nH]cn1)NC(=O)CNC(=O)[C@@H](NC(=O)[C@H](C)NC(=O)[C@H](Cc1c[nH]c2ccccc12)NC(=O)[C@H](CCC(N)=O)NC(=O)[C@@H](Cc1ccccc1)NC(=O)COCCOCCNC(=O)CCC(C(=O)O)N1CCN(CC(=O)O)CCN(CC(=O)O)CCN(CC(=O)O)CC1)C(C)C)C(N)=O (mixture of isomers) [[^111In]In-DOTAGA-PEG2-RM26, metal not drawn]
tissue uptake at 24 h (%ID/g): 1.2

All values here come from paper PMC10377574.
